B1: Hairpin Ribozyme (parent)
chain: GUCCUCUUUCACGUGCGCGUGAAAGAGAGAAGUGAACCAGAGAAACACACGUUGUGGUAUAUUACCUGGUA

variants of: B1; assay: self-cleavage, relative activity (ratio to wild type); higher = more cleavage; co-transcriptional
Recorded self-cleavage determines the group label, using bottom (below 0.2), middle (0.2 to below 0.6), top (0.6 or more)

Example entries and their recorded answers appear below.
GUCCUAUUUCACGUGCGCGUGAAAGAGAGAAGUGAACCAGAGAAACACACUUUGUGGUAUAUUACCUGGUA [C6A G51U]: middle
AUCCUCUUUCACGUGCGCGUGAAGGAGAGAAGUGAACCAGAGAAACACACGUUGUGGUAUAUUACCUGGUA [G1A A24G]: bottom
GUCCUCUUUCACGUGCGCGUGGAAGAGAGAAGUGGACCAGAGAAACACACGUUGUGGUAUAUUACCUGGUA [A22G A35G]: top
GUCCUCUUUCACGUGCGCGUGAAAGAGAGAAGUGAACCACCGAAACACACGUUGUGGUAUAUUACCUGGUA [G40C A41C]: bottom

Request: Category lookup for the variant GUCCUCUUUCACGUGCGCGUGAAAGGGAGAAGUGGACCAGAGAAACACACGUUGUGGUAUAUUACCUGGUA [A26G A35G]
Response: top

Request: Category lookup for the variant GUCCUCUUUCACGUGCGCGUGAAAGAGAGAAGUGAACCAGAGAAACACACGUUGUGGUAUAUUACCUAGUG [G68A A71G]
Response: bottom
